read-out: Pro-epidermal growth factor (Homo sapiens); assay: LTEA_HepaRG_EGF: Life Technologies and Expression Analysis (LTEA) Assay for Epidermal growth factor (EGF) using HepaRG (AID 2283489); conditions: mRNA level, 48 h; actives raise or lower the signal
Activity calls are given as the source filed them. Rule for the calls: active = hit-call score of the fitted dose curve at least 0.9, where 1 is the maximum; inactive = score below 0.9.
Test Readout: AC50

[
  {
    "Compound": "Cc1c(F)c(F)c(COC(=O)C2C(/C=C(\\Cl)C(F)(F)F)C2(C)C)c(F)c1F (stereo not given)",
    "AC50": "50 µM (active)"
  },
  {
    "Compound": "C=CCC1=C(C)[C@@H](OC(=O)[C@@H]2[C@@H](C=C(C)C)C2(C)C)CC1=O",
    "AC50": "inactive"
  },
  {
    "Compound": "N#CC(CCc1ccc(Cl)cc1)(Cn1cncn1)c1ccccc1 (stereo not given)",
    "AC50": "inactive"
  },
  {
    "Compound": "CC(C)(C)c1ccc(CSc2cnn(C(C)(C)C)c(=O)c2Cl)cc1",
    "AC50": "inactive"
  },
  {
    "Compound": "CC(C)C1(C)N=C(c2nc3ccccc3cc2C(=O)O)NC1=O (stereo not given)",
    "AC50": "inactive"
  }
]

Consider the compound shown here: "CCNc1nc(Cl)nc(NCC)n1" What is its recorded AC50?
inactive

Consider the compound shown here: "N#Cc1cc(Br)c(O)c(Br)c1" What is its recorded AC50?
15.3 µM (active)

Consider the compound shown here: "CC(C)Oc1cc(-n2nc(C(C)(C)C)oc2=O)c(Cl)cc1Cl" What is its recorded AC50?
inactive

Consider the compound shown here: "O=C(Nc1ccccc1)Nc1ccnc(Cl)c1" What is its recorded AC50?
inactive

Consider the compound shown here: "Oc1ccccc1-c1ccccc1" What is its recorded AC50?
inactive

Consider the compound shown here: "COc1ccc(C(c2ccc(OC)cc2)C(Cl)(Cl)Cl)cc1" What is its recorded AC50?
inactive

Consider the compound shown here: "O=C(O)c1nc(Cl)ccc1Cl" What is its recorded AC50?
inactive

Consider the compound shown here: "Cc1cc(Cl)ccc1OCC(=O)O" What is its recorded AC50?
inactive
